test-system: AM2 receptor (1321N1 cells transfected with CALCRL+RAMP3) (Homo sapiens, UniProt O60896+Q16602)
Construct: host or cells: 1321N1 cells
Sequence (Q16602 23-461): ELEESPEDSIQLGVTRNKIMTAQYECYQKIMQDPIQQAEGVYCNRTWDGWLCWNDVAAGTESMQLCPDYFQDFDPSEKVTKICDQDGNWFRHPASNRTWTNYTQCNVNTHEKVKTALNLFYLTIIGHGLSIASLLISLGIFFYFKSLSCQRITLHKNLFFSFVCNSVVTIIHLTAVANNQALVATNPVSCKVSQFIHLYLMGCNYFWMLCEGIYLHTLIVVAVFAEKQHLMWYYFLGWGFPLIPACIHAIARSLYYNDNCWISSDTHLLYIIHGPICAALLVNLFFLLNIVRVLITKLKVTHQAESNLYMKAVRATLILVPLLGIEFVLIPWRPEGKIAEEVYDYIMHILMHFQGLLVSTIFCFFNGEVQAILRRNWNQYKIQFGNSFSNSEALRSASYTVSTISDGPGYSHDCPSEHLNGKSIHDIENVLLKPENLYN
Sequence (O60896 24-148): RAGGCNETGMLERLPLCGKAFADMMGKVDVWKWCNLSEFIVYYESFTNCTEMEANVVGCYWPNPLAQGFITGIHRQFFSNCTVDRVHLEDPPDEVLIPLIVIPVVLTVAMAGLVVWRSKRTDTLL
test-protocol: AM2 receptor inhibition, LANCE cAMP agonist-antagonist competition assay
Format: cell-based
experimental-setup: inhibition of AM induced cAMP activation, read-out: AM2 D2 protocol: pIC50 (converted)
Label criterion met when IC50 is strictly below 20 nM; otherwise label criterion not met.

| molecule | label-class |
| --- | --- |
| CNCc1ccccc1CN(CC(=O)Nc1ccc2c(c1)C[C@@]1(C2)C(=O)Nc2ncccc21)C(=O)C1(C)CCN(Cc2ccccc2)CC1 | criterion met |
| CNCc1ccccc1CN(CC(=O)Nc1ccc2c(c1)C[C@@]1(C2)C(=O)Nc2ncccc21)C(=O)C1(C)CCNC1 (stereo partly drawn) | criterion not met |
| CCC1(C(=O)N(CC(=O)Nc2ccc3c(c2)C[C@@]2(C3)C(=O)Nc3ncccc32)Cc2ccccc2CNC)CCN(C(=O)[C@@H](C)NC)CC1 | criterion not met |
| CCC1(C(=O)N(CC(=O)Nc2ccc3c(c2)C[C@@]2(C3)C(=O)Nc3ncccc32)Cc2ccccc2CNC)CCN(C(=O)NC(C)C)CC1 | criterion met |
| CNCc1ccccc1CN(CC(=O)Nc1ccc2c(c1)C[C@@]1(C2)C(=O)Nc2ncccc21)C(=O)C1(C)CCNCC1 | criterion met |
| CCC1(C(=O)N(CC(=O)Nc2ccc3c(c2)C[C@@]2(C3)C(=O)Nc3ncccc32)Cc2ccccc2CNC)CCN(C(=O)[C@H](C)NC)CC1 | criterion met |
| CCC1(C(=O)N(CC(=O)Nc2ccc3c(c2)C[C@@]2(C3)C(=O)Nc3ncccc32)Cc2ccccc2CNC)CCS(=O)(=O)CC1 | criterion met |
| CNCc1ccccc1CN(CC(=O)Nc1ccc2c(c1)C[C@@]1(C2)C(=O)Nc2ncccc21)C(=O)C1(C)CCN(CC(N)=O)CC1 | criterion not met |

Now, please, on to the next molecule.
A record lists CNCc1ccccc1CN(CC(=O)Nc1ccc2c(c1)C[C@@]1(C2)C(=O)Nc2ncccc21)C(=O)C1(C)CCN(C(=O)C2CCN(C(C)=O)CC2)CC1 . Is its IC50 below 20 nM? criterion met
